These data points were gathered from ChEMBL document CHEMBL1201862.

tested on: MDA-MB-231; experiment: NCI tumour cell line growth inhibition, 48 h
Activity calls are given as the source filed them. No stated cut-off is given here; in the data, active = GI50 up to about 1.1 µM and inactive = higher.
Respond with a class label; see Y (active), N (inactive)

Request: How did this test come out for "COC(=O)C1=C(CCC[C@H](C)O[Si](C)(C)C(C)(C)C)NC(=O)N2[C@@H](CCO)CC[C@H]12" ?
Response: N

Request: Per the records of this test, what outcome belongs to "C1CN(c2nc3c(nnc4nc(N5CCOCC5)sc43)s2)CCO1" ?
Response: N

Request: Which outcome did this test record for the molecule "C/C=C1/CN2CC[C@@H]3c4ccccc4N4[C@H](C(=O)OC)[C@H]1C[C@H]2[C@]34/C=C/C1=COC[C@@H]2[C@H]1C[C@H]1c3c(c4ccccc4n3C)C[C@@H]2N1C" ?
Response: N

***
Request: How was CC(NC(=O)C(N)CC(=O)O)NC(=O)C1CCC1 (stereo not drawn) classified in this test?
Response: N

Request: Outcome? "[N-]=[N+]=NC[C@H]1OCO[C@H](CN=[N+]=[N-])[C@H]2OCCOCCOc3ccccc3OCCOCCO[C@@H]21"
Response: N

Request: Any idea what this test logged for "CCOCC(=O)N[C@H]1CCc2cc(OC(=O)COCC)c(OC)c(OC)c2-c2ccc(SC)c(=O)cc21" ?
Response: Y

Request: Which outcome was assigned to "ClCC[N+]12CC[N+](CCCl)(CC1)C2" in this test?
Response: N

Request: Any idea what this test logged for CN(CCCCCl)P(=O)(OCc1ccc([N+](=O)[O-])o1)OC[C@H]1O[C@@H](n2cc(F)c(=O)[nH]c2=O)C[C@@H]1O (stereo partly drawn) ?
Response: N

---

tested on: IGROV-1; assay: NCI tumour cell line growth inhibition, 48 h
The source made the active and inactive calls. Cut-off read from the data, not from the text of the source: active = GI50 up to about 1.1 µM and inactive = higher.
Use one of these outcomes when replying: 1 = active, -1 = inactive

Examples with answers:
Request: How was "Cc1nn(-c2nc3ccccc3s2)c2c1C(=O)c1ccccc1-2" classified in this test?
Response: -1

Request: // return assay outcome for CC1OC(CC(=O)O)Cc2c(O)c3c(c(O)c21)C(=O)C=C(C1=CC(=O)c2c(O)c4c(c(O)c2C1=O)CC(CC(=O)O)OC4C)C3=O (stereo not drawn)
Response: -1

Request: Field: outcome | Entry: C[C@]12CCC(=O)C=C1CC[C@@H]1C2CC[C@]2(C)Nc3[nH]ncc3CC12 (stereo partly drawn)
Response: -1

Request: Can you look up the reported call for COC1CC(C)(N)C(O)C(C)O1 (stereo not drawn) for me?
Response: -1

Request: GET /call?item= "CCOC(=O)c1c(SC(=O)c2cc(OC)c(OC)c(OC)c2)n(-c2ccccc2)c(=S)n(-c2ccccc2)c1=O" returns the recorded outcome of this test.
Response: -1

Request: Given "O=C1/C(=C/c2ccccc2)CN(C(=O)OCc2ccccc2)C/C1=C\c1ccccc1" , state the outcome it received in this test.
Response: -1

Request: Please share the test call associated with "CC[C@@H](C)[C@H]([C@H](CC(=O)N1CCC[C@@H]1[C@@H](OC)[C@H](C)C(=O)N[C@H](Cc1ccccc1)c1nccs1)OC)N(C)C(=O)[C@H](NC(=O)[C@@H](C(C)C)N(C)C)C(C)C" .
Response: 1

More entries:
Request: Please state the recorded outcome for this molecule: "O=C1c2ccc3cc(CCl)cc(O)c3c2C(=O)c2cccc(O)c21"
Response: -1

---

tested on: SN12C; assay: NCI tumour cell line growth inhibition, 48 h
Activity calls are given as the source filed them. Rule as the data show it: active = GI50 up to about 1.1 µM and inactive = higher.
Return exactly one item of active, inactive

Request: Hi, do you know how CN(C)CCN(C)CC1COC(C)(C)O1 (centres undefined) came out in this test?
Response: inactive

Request: Which outcome was entered for the compound CC(=O)NC1C(OCc2ccccc2)OC(CO)C(O)C1OC(C)C(=O)N[C@@H](C)C(=O)N[C@H](CCC(=O)OCCNc1c2ccccc2nc2cccc([N+](=O)[O-])c12)C(N)=O (some centres undefined) in this test?
Response: active

Request: // param item: O=c1[nH]c(=O)n(C2CC(O)C(CO)O2)cc1C#Cc1ccc(C(F)(F)F)cc1 (centres undefined) ; yields the recorded call
Response: inactive

Attention now turns to another entry.
Request: Could you please tell me the result logged for "CCOCC(=O)N[C@H]1CCc2cc(OC(=O)COCC)c(OC)c(OC)c2-c2ccc(SC)c(=O)cc21" in this assay?
Response: active

---

test system: UACC-257; experiment: NCI tumour cell line growth inhibition, 48 h
Calls of active or inactive are those of the source. Cut-off read from the data, not from the text of the source: active = GI50 up to about 1.1 µM and inactive = higher.
GI50 reference

Solved cases (2 shown):
Request: Fill blank: measured GI50 of the compound "CC(=O)O[C@H]1CC[C@@]2(C)C(=CC[C@@H]3[C@@H]2CC[C@]2(C)c4c(C)n[nH]c4C[C@@H]32)C1" is ____.
Response: 16.7 µM (inactive)

Request: May I ask what GI50 has been recorded for CN1CCCC2[C@@H]3CCC4c5nonc5CC[C@]4(C)C3CC[C@@]21C (stereo not given in full) ?
Response: 35 µM (inactive)

More entries:
Request: Return reported GI50; argument: Cc1ccc(/C=C2\CN(C)CC3C2=NC(=S)NC3c2ccc(C)cc2)cc1 (stereo not given)
Response: 62.4 µM (inactive)

Request: # get_value(readout='GI50', item= "COc1ccc(OC)c(CCc2cc(OC)ccc2OC)c1" )
Response: 5.38 µM (inactive)

Request: Record request: GI50 value, item COc1ccc(C2Oc3ccc(O)cc3[C@@H]2C)cc1OC (stereo not given in full)
Response: > 100 µM (inactive)

---

tested on: SF-539; test: NCI tumour cell line growth inhibition, 48 h
Calls of active or inactive are those of the source. Rule as the data show it: active = GI50 up to about 1.1 µM and inactive = higher.
ATTRIBUTE_MEASURED: GI50

Request: # input compound: "Cc1cc(C)nc(Nc2nc3cc([N+](=O)[O-])ccc3[nH]2)n1" ; wanted: its GI50
Response: > 100 µM (inactive)

Request: Given "COc1cccc(/C=C2/Sc3scc(-c4ccccc4)[n+]3C2=O)c1O" , state its recorded GI50.
Response: 16.1 µM (inactive)

Request: Given the compound CN(C)C(=O)OC(Cn1cncn1)c1ccc(Cl)cc1Cl (stereo unspecified) , what is its reported GI50?
Response: > 100 µM (inactive)

Request: GI50 for "CCOC(=O)CC[C@H](NC(=O)N[C@H](C)c1ccccc1)C(=O)OCC" ?
Response: 14.7 µM (inactive)

Request: Given "COc1ccc2c(c1)CC[C@@H]1[C@@H]2CC[C@]2(C)/C(=N/OCCN3CCCCC3)CC[C@@H]12" , state its recorded GI50.
Response: 2.77 µM (inactive)

Note: attention shifts to another entry.
Request: Need GI50, item COC1CC(C)(N)C(O)C(C)O1 (stereo unspecified)
Response: > 100 µM (inactive)

---

system: 786-0; experiment: NCI tumour cell line growth inhibition, 48 h
The source made the active and inactive calls. Rule as the data show it: active = GI50 up to about 1.1 µM and inactive = higher. *1 amine or outer side, *2 acyl side, *3 side chain or, on linkers, in order; H or OH if unused. Where a SMILES comes first, the peptide text is derived from it. [ ]: non-standard residue; d: D form. The star is where a group is joined. ξ: configuration not given here. X26 = O=C([C@H]1CCC[C@H]1N[*:1])[*:2]; ξW = NC(Cc1c[nH]c2ccccc12)C(=O)O; ξF = NC(Cc1ccccc1)C(=O)O; Boc = CC(C)(C)OC(=O)*; ξK = NCCCCC(N)C(=O)O; ξT = CC(O)C(N)C(=O)O; tBu = CC(C)(C)*
Outcome field: choose from active, inactive

Illustrative cases are given below, each with its answer.
Request: What was the test verdict on COC1OC(C)C(OC(=O)C(C)(C)C)C(OS(=O)(=O)c2ccc(C)cc2)C1OS(=O)(=O)c1ccc(C)cc1 (stereo not drawn) ?
Response: inactive

Request: In this assay, the call recorded for NCCC1([N+](=O)[O-])C=CN=CC1 (stereo not drawn) was what?
Response: inactive

Request: How did this test come out for "CC1(C)CC(=O)C(=CNC(=O)c2ccncc2)C(=O)C1" ?
Response: inactive

Request: So what was the verdict on O=C1O/C(=C\C=C\CO)C=C1/C=C/CO [LISSOCLINOLIDE] in this test?
Response: inactive

Request: Check the results log: what was the call for "Cc1ncc(CBr)c(CBr)c1O" ?
Response: inactive

Request: Outcome? CC1OC(Oc2c(-c3cc(O)c(O)c(O)c3)oc3cc(O)cc(O)c3c2=O)C(O)C(O)C1O (stereo not drawn)
Response: inactive

Request: How did this test come out for "C[C@@H](Br)[C@@H]1CC[C@H]2c3[nH]c4ccccc4c3CCN2C1" ?
Response: inactive

Request: For CCCCCCCCCCCCCCCCCCOCC(COP(=O)([O-])OCC[N+](C)(C)C)OC (stereo not drawn) , which call appears in the assay record?
Response: inactive

Next:
Request: # fetch the recorded call for "O=C(/C=C/c1ccccc1)c1ccccc1" here
Response: inactive

Request: // param item: CN1CCOC(c2ccccc2)O1 (stereo not drawn) ; yields the recorded call
Response: inactive

Request: For CNC(=O)/C=C/C1=CN2C(=O)c3ccc(C)c(O)c3NC(OC)C2C1 (stereo not drawn) , which call appears in the assay record?
Response: active

Request: Kindly provide the recorded test outcome for the following compound: "CCOCC(=O)N[C@H]1CCc2cc(OC(=O)COCC)c(OC)c(OC)c2-c2ccc(SC)c(=O)cc21"
Response: active

Request: I would be grateful if you could indicate the recorded call for "COc1cc(NP(=O)(Oc2ccccc2)Oc2ccccc2)ccc1Nc1c2ccccc2nc2c1[nH]c1ccccc12" .
Response: active

Request: Which outcome did this test record for the compound CC(OC(C)(C)C)C1NC(=O)C(CCCCNC(=O)OC(C)(C)C)NC(=O)C(Cc2c[nH]c3ccccc23)NC(=O)C(Cc2ccccc2)NC(=O)[C@H]2CCC[C@H]2NC(=O)C(Cc2ccccc2)NC1=O (stereo partly drawn) (cyclo([X26][ξF][ξW][ξK](Boc)[ξT](tBu)[ξF])) ?
Response: inactive

Request: Dear colleague, could you share the recorded outcome for "CC(=O)OCc1nc(C#N)c(N)o1" when you have a moment?
Response: inactive

Request: # outcome recorded in this test, key = CC1=NN(C(=O)CC(=O)Nc2ccccc2Cl)C(=O)C1/N=N\c1ccc(S(=O)(=O)c2ccc(/N=N/C3C(=O)N(C(=O)CC(=O)Nc4ccccc4Cl)N=C3C)cc2)cc1 (stereo not drawn)
Response: inactive

Request: I would be grateful if you could indicate the recorded call for CN(CCCCCl)P(=O)(OCc1ccc([N+](=O)[O-])o1)OC[C@H]1O[C@@H](n2cc(F)c(=O)[nH]c2=O)C[C@@H]1O (stereo partly drawn) .
Response: active

Request: // return assay outcome for COc1ccc(C2CC(C)=Nc3c(O)nc(S)nc3N2)cc1 (stereo not drawn)
Response: inactive
